Molecular target: Substance-P receptor (Homo sapiens, UniProt P25103)
Sequence (P25103 whole entry): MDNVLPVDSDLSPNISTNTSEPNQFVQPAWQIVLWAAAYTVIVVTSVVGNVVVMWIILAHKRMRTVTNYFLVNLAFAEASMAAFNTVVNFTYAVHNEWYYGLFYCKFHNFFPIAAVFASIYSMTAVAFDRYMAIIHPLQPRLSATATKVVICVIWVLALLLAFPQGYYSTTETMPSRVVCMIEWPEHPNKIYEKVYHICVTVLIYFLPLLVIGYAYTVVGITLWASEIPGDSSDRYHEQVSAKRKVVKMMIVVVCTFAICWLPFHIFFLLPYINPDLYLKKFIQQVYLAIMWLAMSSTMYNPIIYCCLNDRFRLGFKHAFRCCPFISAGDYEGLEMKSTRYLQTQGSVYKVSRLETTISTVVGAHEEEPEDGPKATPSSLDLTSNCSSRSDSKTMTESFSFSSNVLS
measuredParameter: pKi
Please keep in mind that pKi is minus log10 of the molar concentration; only the number is needed.

Lookup: Consider the molecule CNC(c1ccccc1)C1(NCc2cc(C(F)(F)F)cc(C(F)(F)F)c2)CC1 (racemic) and give its measured pKi.
Found: 6.21
